- system tested: full-length human RORγt (Homo sapiens (Human), UniProt P51449)
- Sequence (P51449 other isoform, or with tags, fused parts or gaps): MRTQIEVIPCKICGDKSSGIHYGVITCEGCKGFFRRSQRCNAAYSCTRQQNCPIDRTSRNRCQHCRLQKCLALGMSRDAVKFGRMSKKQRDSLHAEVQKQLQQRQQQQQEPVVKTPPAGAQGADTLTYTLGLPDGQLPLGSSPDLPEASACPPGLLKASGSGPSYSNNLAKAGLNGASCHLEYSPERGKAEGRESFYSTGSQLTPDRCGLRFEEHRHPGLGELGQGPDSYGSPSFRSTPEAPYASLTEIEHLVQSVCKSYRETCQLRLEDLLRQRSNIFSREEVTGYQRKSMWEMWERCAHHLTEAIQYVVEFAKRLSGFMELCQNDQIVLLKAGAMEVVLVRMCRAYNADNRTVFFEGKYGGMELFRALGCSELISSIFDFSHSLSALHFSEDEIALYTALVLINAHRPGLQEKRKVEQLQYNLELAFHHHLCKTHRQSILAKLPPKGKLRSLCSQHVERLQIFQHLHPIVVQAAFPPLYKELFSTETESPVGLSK
- assay: RORγt (full-length human) reporter assay, Conditions B or C
- Format: cell-based
- experimental parameters: at 3 μM compound concentration; read-out: RORγt (FL) Reporter Assay B or C, % inhibition
result type: inhibition at 3 µM
Your reply should be a number followed by the unit it is expressed in.

Check out these entries, answers already filled in.
molecule | inhibition at 3 µM
C[C@H](Nc1cc(C(F)F)c(-c2sc(C(=O)N[C@H]3CCC[C@@H]3O)nc2C(=O)N2C3CCC2CC3)cn1)C(F)(F)F [Example 293] | 94%
C[C@H]1CC(F)(F)CN1C(=O)c1nc(C(=O)N[C@H]2C[C@H](O)C2)sc1-c1cnc(NC2(C)CCC2)cc1C(F)F [Example 327] | 93%
C[C@H]1CCCN1C(=O)c1nc(C(=O)N[C@H]2C[C@H](O)C2)sc1-c1cnc(NC(C)(C)C)cc1C(F)F [Example 400] | 84%
C[C@H](Nc1cc(C(F)F)c(-c2sc(C(=O)N[C@H]3CC[C@H]3O)nc2C(=O)N2CCC[C@@H]2C)cn1)C(F)(F)F (relative stereo) [Example 390] | 99%
CC[C@H](Nc1cc(C(F)F)c(-c2sc(C(=O)N3CC(S(C)(=O)=O)C3)nc2C(=O)N2CCC[C@@H]2C)cn1)C(F)(F)F [Example 393] | 118%

We next turn to a different molecule, shown below.
(Q) For the molecule shown here, C[C@H]1CCCN1C(=O)c1nc(C(=O)NCC(C)(C)O)sc1-c1cnc(NC(C2CC2)C(F)(F)F)cc1C(F)F (stereo partly drawn) [Example 294] , give the reported inhibition at 3 µM.
(A) 100%

====

- system tested: full-length human RORγt (Homo sapiens (Human), UniProt P51449)
- assay: RORγt (full-length human) reporter assay, Conditions B or C
- Format: cell-based
- experimental parameters: read-out: RORγt (FL) Reporter Assay B or C, IC50
Entries and their pIC50 values follow.
Just so you know, pIC50 here is -log10 of the concentration in molar units; reply with that number alone.

compound | pIC50
C[C@H](NC(=O)c1nc(C(=O)N2CCC[C@@H]2C)c(-c2cnc(N[C@H](C)C(F)(F)F)cc2C(F)F)s1)C(C)(C)O | 7.04
C[C@H]1CCCN1C(=O)c1nc(C(=O)N[C@H]2CCC[C@@H]2O)sc1-c1cnc(NC(C)(C)C)cc1C(F)F | 7.68

(Q) Which pIC50 value belongs to C[C@H]1CCCN1C(=O)c1nc(C(=O)N[C@@H]2CCC[C@H]2O)sc1-c1cnc(NC(C)(C)C)cc1C(F)F ?
(A) 8.05

(Q) Which pIC50 reading was recorded for the compound C[C@H]1CCCN1C(=O)c1nc(C(=O)N2CC[C@](C)(O)C2)sc1-c1cnc(NC(C)(C)C)cc1C(F)(F)F (relative stereo) ?
(A) 7.28

====

Catalogue of inhibition at 6 µM readings, one per entry.
- system tested: full-length human RORγt (Homo sapiens (Human), UniProt P51449)
- assay: RORγt (full-length human) reporter assay, Conditions A
- Assay type: cell-based
- experimental parameters: read-out: RORγt (FL) Reporter Assay A, % inhibition @ 6 μM; Conditions A; @ 6 μM
- From the text: RORγt (Full-Length Human) Reporter Assay: Cells used in this assay were transiently co-transfected with three different plasmids, one expressing the GAL4-DNA binding domain (DBD)-RORγt fusion protein under control of a CMV promoter (NH2-Gal4-DBD:RORC-COOH in pCMV-BD, Stratagene #211342), and two reporter plasmids—the firefly luciferase reporter under control of a GAL4 promoter (pFR-Luc 2×GAL4) and Renilla luciferase reporter under control of CMV promoter (pRL-CMV, Promega # E2261). […]
Remember to follow the number with its unit.

Use these answered entries as a reference point.
compound | result type | value observed
CC(C)(O)CNC(=O)c1nc(C(=O)N2CCC(F)CC2)c(-c2cnc(NC3CC4(CCC4)C3)cc2C(F)(F)F)s1 | inhibition at 6 µM | 107%
CC(C)(O)CNC(=O)c1nc(C(=O)N2CCC(F)CC2)c(-c2cnc(NC3CCCCC3)cc2C(F)F)s1 | inhibition at 6 µM | 105%
CC(C)(O)CNC(=O)c1nc(C(=O)N2CCC(F)CC2)c(-c2cnc(NC3CC(F)(F)C3)c(C(F)(F)F)c2)s1 | inhibition at 6 µM | 105%
CC(C)(O)CNC(=O)c1nc(C(=O)N2CCC(F)CC2)c(-c2cnc(NC3CCCCC3)c(OC(F)F)c2)s1 | inhibition at 6 µM | 98%

(Q) Quick one: inhibition at 6 µM of COc1cc(NC2CCCCC2)ncc1-c1sc(C(=O)NCC(C)(C)O)nc1C(=O)N1CCC(F)CC1 ?
(A) 96%

(Q) # input compound: CC(C)(O)CNC(=O)c1nc(C(=O)N2CCC(F)CC2)c(-c2cnc(NCCC(F)(F)F)cc2C(F)(F)F)s1 ; wanted: its inhibition at 6 µM
(A) 95%

(Q) Which inhibition at 6 µM reading was recorded for the compound CC(C)(O)CNC(=O)c1nc(C(=O)N2CCC(F)CC2)c(-c2cnc(NC3CCCCC3)c(C#N)c2C(F)(F)F)s1 ?
(A) 70%
